target: CDKs and other kinases (Homo sapiens, UniProt P06493)
Construct: other: CDK1B; residual activity (%) at 10 μM CDK1B; compound at 10 μM
Sequence (P06493 whole entry): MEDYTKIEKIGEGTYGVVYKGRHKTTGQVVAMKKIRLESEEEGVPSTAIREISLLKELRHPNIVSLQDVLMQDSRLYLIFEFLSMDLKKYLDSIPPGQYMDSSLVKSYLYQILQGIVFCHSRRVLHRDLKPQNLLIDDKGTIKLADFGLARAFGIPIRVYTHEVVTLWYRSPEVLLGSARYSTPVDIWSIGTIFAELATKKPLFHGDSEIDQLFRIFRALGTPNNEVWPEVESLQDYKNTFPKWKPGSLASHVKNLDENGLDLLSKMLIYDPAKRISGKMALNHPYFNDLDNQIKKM
method description: Radiometric kinase assay (Eurofins Pharma Discovery or Reaction Biology Corporation Kinase Profiler)
Assay type: biochemical
condition summary: CDK1B; compound at 10 μM; read-out: residual activity (%) at 10 μM CDK1B
endpoint label: remaining activity at 10 µM (%)

Study these solved cases before continuing.
{"smiles text": "Cc1cnc(N[C@H]2CC[C@H](N)CC2)nc1-c1cnc2ccc(-c3ccc(CN4CCOCC4)cc3)cn12", "remaining activity at 10 µM / %": 57}
{"smiles text": "CC(C)(C)OC(=O)N1CCC(Nc2ncc(F)c(-c3cnc4ccccn34)n2)CC1", "remaining activity at 10 µM / %": 56}
{"smiles text": "N[C@H]1CC[C@H](Nc2ncc(Cl)c(-c3cnc4cc(-c5cccnc5)ccn34)n2)CC1", "remaining activity at 10 µM / %": 7}
{"smiles text": "Cc1cnc(N[C@H]2CC[C@H](C)CC2)nc1-c1cnc2ccc(Nc3cncnc3)cn12", "remaining activity at 10 µM / %": 34}
{"smiles text": "Cc1cnc(N[C@H]2CC[C@H](N)CC2)nc1-c1cnc2ccc(-c3ncccc3F)cn12", "remaining activity at 10 µM / %": 67}

(P) Fc1cnc(NC2CCN(CC3CCCC3)CC2)nc1-c1cnc2ccc(-c3ccccc3)cn12
(Q) CS(=O)(=O)N1CCC(Nc2ncc(F)c(-c3cnc4ccccn34)n2)CC1
(R) Cc1cnc(N[C@H]2CC[C@H](O)CC2)nc1-c1cnc2ccccn12
Ask | Please rank these molecules by remaining activity at 10 µM in descending order. # answer = labels listed in requested order
Reply | R, P, Q

----------
target: CDK9/T1 (Homo sapiens)
Sequence (P50750 whole entry): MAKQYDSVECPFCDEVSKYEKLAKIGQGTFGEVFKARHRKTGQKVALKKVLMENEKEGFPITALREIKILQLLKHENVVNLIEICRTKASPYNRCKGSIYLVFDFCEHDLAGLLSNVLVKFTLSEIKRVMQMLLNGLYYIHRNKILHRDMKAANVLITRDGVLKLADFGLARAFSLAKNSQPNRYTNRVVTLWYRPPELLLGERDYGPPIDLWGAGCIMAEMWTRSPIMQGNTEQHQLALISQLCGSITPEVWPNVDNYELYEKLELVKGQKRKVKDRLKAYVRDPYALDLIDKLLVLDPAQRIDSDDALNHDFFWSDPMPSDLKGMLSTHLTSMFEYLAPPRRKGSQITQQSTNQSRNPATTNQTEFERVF
Sequence (O60563 whole entry partner): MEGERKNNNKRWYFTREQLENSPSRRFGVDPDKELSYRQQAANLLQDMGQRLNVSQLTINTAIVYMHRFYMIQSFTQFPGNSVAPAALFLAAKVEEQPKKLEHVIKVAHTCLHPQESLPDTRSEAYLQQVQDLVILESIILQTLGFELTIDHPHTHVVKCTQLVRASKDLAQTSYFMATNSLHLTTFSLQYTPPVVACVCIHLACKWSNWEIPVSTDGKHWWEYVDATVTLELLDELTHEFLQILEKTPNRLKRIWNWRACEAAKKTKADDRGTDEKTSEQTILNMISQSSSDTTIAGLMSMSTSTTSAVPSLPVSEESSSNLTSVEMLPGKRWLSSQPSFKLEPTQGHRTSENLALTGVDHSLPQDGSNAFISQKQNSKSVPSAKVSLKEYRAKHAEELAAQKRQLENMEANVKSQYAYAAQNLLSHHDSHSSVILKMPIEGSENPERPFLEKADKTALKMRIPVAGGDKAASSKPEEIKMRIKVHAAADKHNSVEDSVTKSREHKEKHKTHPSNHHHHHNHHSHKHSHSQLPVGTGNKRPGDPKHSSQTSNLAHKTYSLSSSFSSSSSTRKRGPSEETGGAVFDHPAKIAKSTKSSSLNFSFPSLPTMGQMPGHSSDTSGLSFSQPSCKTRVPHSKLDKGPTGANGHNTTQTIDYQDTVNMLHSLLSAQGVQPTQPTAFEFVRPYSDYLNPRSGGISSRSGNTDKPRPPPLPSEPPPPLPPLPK
method description: ADP Glo Kinase assay CDK9/T1
Assay type: biochemical
condition summary: CDK9T1; read-out: CDK inhibition, Ki (μM) CDK9T1
endpoint label: Ki (µM)

Study these solved cases before continuing.
{"molecule": "Cc1cnc(N[C@H]2CC[C@H](N3CCCC3)CC2)nc1-c1cnc2ccc(Nc3cncnc3)cn12", "value units": "µM", "Ki": 0.025}
{"molecule": "Cc1cnc(N[C@H]2CC[C@H](C)CC2)nc1-c1cnc2ccc(Nc3cncnc3)cn12", "value units": "µM", "Ki": 0.181}
{"molecule": "Cc1cnc(N[C@H]2CC[C@H](N)CC2)nc1-c1cnc2ccc(-c3ccncc3)cn12", "value units": "µM", "Ki": 0.12}
{"molecule": "N[C@H]1CC[C@H](Nc2ncc(F)c(-c3cnc4ccc(-c5ccccc5)cn34)n2)CC1", "value units": "µM", "Ki": 0.002}

(1) Cc1cnc(NC2CCC(N3CCNC(=O)C3)CC2)nc1-c1cnc2ccc(Nc3cncnc3)cn12 (stereo not shown)
(2) Cc1cnc(N[C@H]2CC[C@H](N)CC2)nc1-c1cnc2ccccn12
(3) COc1ccc(-c2ccc3ncc(-c4nc(N[C@H]5CC[C@H](O)CC5)ncc4Cl)n3c2)cn1
(4) CNC(=O)N[C@H]1CC[C@H](Nc2ncc(C)c(-c3cnc4ccc(-c5ccccc5)cn34)n2)CC1
(5) Cc1cnc(N[C@H]2CC[C@H](N)CC2)nc1-c1cnc2ccc(Nc3ccncc3)cn12
Ask | Which order do these items take when sorted by rising Ki? List them. # answer = labels listed in requested order
Reply | 2, 5, 1, 3, 4

(P) N[C@H]1CC[C@H](Nc2ncc(Cl)c(-c3cnc4cc(Nc5cncnc5)ccn34)n2)CC1
(Q) Fc1cnc(NC2CCN(CC3CC3)CC2)nc1-c1cnc2ccc(-c3ccccc3)cn12
(R) Cc1cnc(N[C@H]2CC[C@H](N)CC2)nc1-c1cnc2ccc(NC(=O)c3ccc(F)cc3)cn12
(S) O[C@H]1CC[C@H](Nc2ncc(Cl)c(-c3cnc4ccc(-c5ccc(F)cc5)cn34)n2)CC1
Ask | Which order do these items take when sorted by rising Ki? List them. # answer = labels listed in requested order
Reply | P, R, Q, S
